Target or system: USP7 (Homo sapiens, UniProt Q93009)
Construct: USP7, construct USP7 (208-1102) 6*His, Viva Biotech; 6xHis (C); purchased Viva Biotech
Sequence (Q93009 208-1102): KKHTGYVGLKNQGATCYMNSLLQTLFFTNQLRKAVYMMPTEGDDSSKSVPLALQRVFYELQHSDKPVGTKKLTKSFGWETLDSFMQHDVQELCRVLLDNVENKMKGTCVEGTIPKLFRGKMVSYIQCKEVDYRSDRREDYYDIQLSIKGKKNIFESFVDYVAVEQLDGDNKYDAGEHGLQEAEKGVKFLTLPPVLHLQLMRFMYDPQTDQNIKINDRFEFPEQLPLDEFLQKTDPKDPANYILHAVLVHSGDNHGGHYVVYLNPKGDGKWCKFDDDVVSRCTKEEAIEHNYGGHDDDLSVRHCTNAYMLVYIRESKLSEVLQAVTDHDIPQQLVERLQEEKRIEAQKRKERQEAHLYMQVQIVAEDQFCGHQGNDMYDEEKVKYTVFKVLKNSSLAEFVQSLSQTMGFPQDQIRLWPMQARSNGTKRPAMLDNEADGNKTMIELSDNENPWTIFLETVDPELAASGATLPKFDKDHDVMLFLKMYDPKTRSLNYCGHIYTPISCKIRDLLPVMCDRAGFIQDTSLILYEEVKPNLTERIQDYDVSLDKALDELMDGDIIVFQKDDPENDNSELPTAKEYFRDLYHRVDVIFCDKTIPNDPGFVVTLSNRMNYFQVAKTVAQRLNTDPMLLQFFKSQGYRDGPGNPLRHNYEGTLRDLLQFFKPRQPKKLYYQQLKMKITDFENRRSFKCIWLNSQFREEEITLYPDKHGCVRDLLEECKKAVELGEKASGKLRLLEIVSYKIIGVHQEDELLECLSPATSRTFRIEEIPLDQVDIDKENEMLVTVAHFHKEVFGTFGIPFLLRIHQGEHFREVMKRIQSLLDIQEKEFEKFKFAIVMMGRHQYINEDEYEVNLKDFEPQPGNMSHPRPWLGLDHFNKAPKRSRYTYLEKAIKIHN
Assay summary: USP7 Assay A (Ubitquin-Rhodamine 110 Assay)
Assay type: biochemical
Experimental parameters: USP7 assay A and B (table does not say which assay per compound); Ubiquitin-Rhodamine 110 substrate; read-out: USP7_IC50
pIC50: −log10 of the molar value.
Quantity: pIC50

>  <Compound>
CC(C)n1ncc2c(=O)n(CC3(O)CCN(C(=O)C[C@@H](C)c4ccccc4)CC3)cnc21

>  <Measured value>
6.00 to 6.70

$$$$
>  <Compound>
C[C@H](CC(=O)N1CCC(O)(Cn2cnc3c(cnn3C(C)(C)C)c2=O)CC1)c1ccccc1

>  <Measured value>
6.00 to 6.70

$$$$
>  <Compound>
Cn1ncc2c(=O)n(CC3(O)CCN(C(=O)c4ccc(-c5ccc(C(=O)N6CCCCC6)cc5)cc4Cl)CC3)cnc21

>  <Measured value>
5.00 to 6.00

$$$$
>  <Compound>
CC(C)(C)n1ncc2c(=O)n(CC3(O)CCN(C(=O)c4ccc(Oc5ccccc5)cc4)CC3)cnc21

>  <Measured value>
< 5.00

$$$$

Dear colleague, could you send me pIC50 for each of the items below? Thanks.
1. C[C@H](CC(=O)N1CCC(O)(Cn2cnc3c(cnn3C)c2=O)CC1)c1ccccc1
2. CC(CC(=O)N1CCC(O)(Cn2cnc3c(cnn3C)c2=O)CC1)c1ccccc1 (stereo not drawn)

1: 6.00 to 6.70; 2: 6.00 to 6.70
